Measurement Target: H-2 D^b (mouse; human), P61769
pIC50: −log10 of the molar value.
Outcome label depends on pIC50 relative to 6: at/above gives t, below gives f.

Recorded results for 5 binders are shown here.
binder="LAVTIMAIL (modifications not checked) [NS2A145-153]" class_assignment=t
binder="TAIANQATV (modifications not checked) [NS4B66-74]" class_assignment=t
binder="RALIFILL (modifications not checked) [M60-67]" class_assignment=f
binder="RMLINRFTM (modifications not checked) [NS5237-45]" class_assignment=t
binder="YSQVNPITL (modifications not checked) [NS4B99-107]" class_assignment=t

From here, focus on the item given below.
INPUT: Given the entry FSLGVLGM (modifications not checked) [NS2A8-15] , answer whether its pIC50 meets or surpasses 6.
OUTPUT: f
